Where do these numbers come from? They come from paper PMC4768215.

Listing of recorded koff by entry.
tested_system: T1, QCD-32g58 LMW SLP (low-molecular-weight subunit of the QCD-32g58 surface layer protein) (Clostridioides difficile QCD-32g58 …, UniProt A0A9R0BMB3, strain)
T1 construct: low-molecular-weight (LMW) subunit of the surface layer protein, cut from the precursor SlpA by Cwp84, C. difficile strain QCD-32g58 (ribotype 027); predicted mass 33.9 kDa; also called QCD-32g58 SLP LMW subunit; LMW subunit; source: purified from C. difficile QCD-32g58 (low-pH glycine extraction, minor SEC peak at about 15 ml); in the Western blot the LMW band of the extracted SLPs
test_name: SPR; Biacore 3000; SEC-purified QCD-32g58 LMW SLP subunit amine-coupled to a CM5 chip; single-concentration screen, 200 nM VHH; 25 °C, 10 mM HEPES pH 7.4, 150 mM NaCl, 3 mM EDTA, 0.005 % P20
test_context: both partners purified

binder	unit_of_measurement	koff
SLP_VHH50 (VHH, From an immune llama phage display library panned on QCD-32g58 SLP; source: monomeric SEC fractions for SPR; not shown: His6, C-terminal, kept) VHH: QVKLEESGGGLVQPGGSLRLSCAASGFTLDYYTIGWFRQAPGKEREGVACISSDDRTYYVDSVKGRFAISRDNVKNTVYLQMNNLKPEDTAVYYCASKESVFLIATMKGCAPGHDDYWGQGTQVTVSS	s⁻¹	0.0027
SLP_VHH5 (VHH, From an immune llama phage display library panned on QCD-32g58 SLP; source: monomeric SEC fractions for SPR; not shown: His6, C-terminal, kept) VHH: QVKLEESGGGLVQAGGSLRLSCAASRLTFSTYHMGWFRQAPGKEREFVAALSWSGGTTYYADSVKGRFGISRDNAKNTVYLQMNSLKPEDTAVYYCASGGVLATMNSDEYDYWGQGTQVTVSS	s⁻¹	0.00041
SLP_VHH46 (VHH, From an immune llama phage display library panned on QCD-32g58 SLP; source: monomeric SEC fractions for SPR; not shown: His6, C-terminal, kept) VHH: QVKLEESGGGLVQAGGSLRLSCADSERTFRIYTMAWFRQAPGKERDFVAAISWSGGSTYYADSVKGRFTISRDNAKNTVYLPMNSLKPDDTAVYYCASGGVLSTGSQSDSEYDFWGQGTQVTVSS	s⁻¹	0.00032
SLP_VHH22 (VHH, From an immune llama phage display library panned on QCD-32g58 SLP; source: monomeric SEC fractions for SPR; not shown: His6, C-terminal, kept) VHH: QVQLVESGGGLVQPGGSLRLSCAASGFTLDSYAIGWFRQAPGKEHEGISCISSNGGSTYYTDSVKGRFTISRDNAKNTVYLQMNSLESEDSAVYYCATVRRCSSLDMALGALATRTKGYDYWGQGTQVTVSS	s⁻¹	0.0011
SLP_VHH12 (VHH, From an immune llama phage display library panned on QCD-32g58 SLP; source: monomeric SEC fractions for SPR; not shown: His6, C-terminal, kept) VHH: QVQLVESGGGLVQAGDSLRLSCAASGGTFSSYAVGWFRQAPGKERQFVAAISWSGRSTEYADSVKGRFTISRDNAKNTVYLQMNSLQPDDTGVYYCAADWSHPENKAELLRLRLWVLSAESSDYWGQGTQVTVSS	s⁻¹	0.00012
SLP_VHH2 (VHH, From an immune llama phage display library panned on QCD-32g58 SLP; source: monomeric SEC fractions for SPR; not shown: His6, C-terminal, kept) VHH: QVKLEESGGGLVQPGGSLRLSCAASGGTFTNYAMAWFRQTPGNDREFVGIISQKGGRTYYADSVKGRFSVSRDNAKNTAYLQMNSLKPEDTAVYYCAAGDSSYYYTRSRYDIWGQGTQVTVSS	s⁻¹	0.013
SLP_VHH23 (VHH, From an immune llama phage display library panned on QCD-32g58 SLP; source: monomeric SEC fractions for SPR; not shown: His6, C-terminal, kept) VHH: QVQLVESGGGLVQAGGSLRLSCAASGRTFSSYAVGWFRQAPGKEREFVAAISWSGGYTDYADSVKGRFTISRDNAKNTVYLQMNNLKPEDTAVYYCAADWSHPENKAELLRLRLWVLSAESSDDWGQGTQVTVSS	s⁻¹	0.00032
SLP_VHH49 (VHH, From an immune llama phage display library panned on QCD-32g58 SLP; source: monomeric SEC fractions for SPR; not shown: His6, C-terminal, kept) VHH: QVKLEESGGGLVQAGGSLRLSCAASEGAFSDALSRHAAGWFRQAPGKEREFVAAISWNGANTDYKNSVNNRFTISRDTSKNTVYLQMNSLKPEDTAVYYCAAKNEPSWISRIYYRGLEYDYWGQGTQVTVSS	s⁻¹	0.012
